B1: IRX6 (parent)
chain: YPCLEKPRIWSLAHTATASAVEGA

Variants of: B1
Test: protein stability index of a GFP-peptide fusion (GPS, HEK-293T) (PSI 1-6); higher = more stable;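 also: lentivirally expressed fusions sorted by FACS into six bins by GFP to DsRed ratio, PSI derived from sequencing read proportions per bin multiplied by bin number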
Details: c terminus: a fixed tail appended
Measure: protein stability index
Answers are plain numbers.

Sequence change: R8D
protein stability index: 3.96
//
Sequence change: L12M
protein stability index: 2.36
//
Sequence change: S11N
protein stability index: 2.31
//
Sequence change: I9A
protein stability index: 3.17
//
Sequence change: V21N
protein stability index: 2.73
//
Sequence change: E22V
protein stability index: 2.62
//
Sequence change: P2E
protein stability index: 2.29
//
Sequence change: A24C
protein stability index: 2.18
//
Sequence change: H14L
protein stability index: 3.94
//
Sequence change: W10K
protein stability index: 4.42

Batch lookup, protein stability index per entry.
1. K6L
2. E22C
3. P7Q
4. E22D
5. L4T
6. K6S
7. S19Q

Key:
1: 1.2; 2: 3.29; 3: 2.32; 4: 2.16; 5: 3.03; 6: 3.68; 7: 3.07

Please give protein stability index, item by item, for the list that follows.
1. R8P
2. L12R
3. R8C
4. Y1L
5. P7E

Key:
2.2
2.19
3.13
3.59
2.27
